molecular target: Calmodulin-1 (Homo sapiens) (UniProt P0DP23); assay: calcium-bound CALM1 binders on microarrays, profiling panel, artefact control for SMM control-protein annotation, biochemical, small-molecule microarray, Cy5-labelled CALM1, plus calcium (AID 1112); settings: Cy5-CALM1 binding fluorescence, higher = more signal;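 further: score merges spot fluorescence with signal to noise from triplicate slides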
outcomeMeasure: composite z-score
Simply state the number, no unit and no words.

Reference set, count: 6
Ask: # lookup: composite z-score of C[C@H]1ON(c2ccc(C(=O)OC(C)(C)C)cc2)[C@@H](c2ccc(O)cc2)[C@@H]1C(=O)N1C(=O)OC[C@@H]1c1ccccc1
Result: -0.32

Ask: # lookup: composite z-score of CO[C@H]1O[C@H](CO)[C@@H](OC(=O)Nc2ccc(C(F)(F)F)cc2)[C@H](OC(=O)Nc2ccc3c(c2)OCO3)[C@H]1OC(=O)Nc1ccc2c(c1)OCO2
Result: -0.367

Ask: # lookup: composite z-score of C[C@H]1C2=C3C(CC[C@H]4C(OCc5ccc(F)cc5C(F)(F)F)OC[C@](C)([C@@H]34)N(C(=O)OC(C)(C)C)C2)C(CO)C1CO (some centres not stated)
Result: 0.861

Ask: # lookup: composite z-score of C=C(COC)/C(=C/C[C@@H](OC(=O)c1ccncc1)c1cccc(OCCO)c1)c1cnc2ccccc2c1
Result: -0.102

Ask: # lookup: composite z-score of CCCCN1CC=CC23O[C@@H]4/C=C\CCC(C)OC(=O)C4[C@H]2C(=O)N(CCCCCCO)[C@@H]3C1=O (some centres not stated)
Result: 0.282

Ask: # lookup: composite z-score of COC(=O)[C@]1(CCS(=O)(=O)c2ccccc2)N=C(c2ccc(OCCCO)cc2)O[C@@H]1c1ccccc1CN=[N+]=[N-]
Result: -0.48

Kindly review the next compound as well.
Ask: # lookup: composite z-score of O=C1C[C@@](C(=O)NCC(F)(F)F)(c2ccc([N+](=O)[O-])cc2)[C@@H](c2ccc(CO)cc2)N1C1CCCCC1
Result: -0.088

* * *

experiment: small-molecule microarray binders of probe aLefty2, primary screen, biochemical, biotinylated probe, 635/667 nm fluorescence (AID 1094); conditions: higher = more signal;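 further: score merges spot fluorescence near 667 nm with spot signal-to-noise ratio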
outcomeMeasure: composite z-score
Simply state the number, no unit and no words.

Reference set, count: 3
Ask: # lookup: composite z-score of COc1ccc([Si](C)(C)[C@H]2[C@H](CCn3cc([C@H](O)c4ccccc4)nn3)O[C@@]3(C(=O)N(Cc4ccc(N5CCC5=O)cc4)c4ccccc43)[C@@H]2C)cc1
Result: -0.184

Ask: # lookup: composite z-score of COC1(C)CN(Cc2ccccc2Br)[C@H](/C=C/c2ccccc2)[C@H](Cc2ccccc2)O1 (some centres undefined)
Result: -0.231

Ask: # lookup: composite z-score of COc1ccc(C(O)C2C=CC3C(=O)N(c4ccccc4)C(=O)C3N2Nc2ccccc2)cc1OCc1ccccc1 (centres undefined)
Result: 0.104

More entries:
Ask: # lookup: composite z-score of C=CC[C@@H](OC(=O)Nc1ccc(OC)cc1)c1ccc(OCCO)cc1
Result: -0.0304

Ask: # lookup: composite z-score of [N-]=[N+]=NCc1ccccc1C[C@@]1(C(N)=O)N=C(c2ccc(OCCCO)cc2)O[C@@H]1c1ccccc1CN=[N+]=[N-]
Result: 0.123

Ask: # lookup: composite z-score of CC(C)NC(=O)[C@@]1(C)c2ccccc2C(=O)N(C(C)C)[C@H]1c1ccc(CO)cc1
Result: -0.0466

Ask: # lookup: composite z-score of C=CC[C@]1(C(=O)N(C)C)N=C(c2ccc(OCCCO)cc2)O[C@H]1c1ccccc1N=[N+]=[N-]
Result: 0.285

Ask: # lookup: composite z-score of COC(=O)[C@H](Cc1ccccc1)N1CC(/C=C/C2CC2)=C[C@@H]1[C@@H](O)Cc1ccccc1
Result: 0.0166

Ask: # lookup: composite z-score of COc1c(C)cc(-c2cc3c(c(-c4ccccc4)n2)[Si](C(C)C)(C(C)C)OC3)cc1C
Result: 0.0008

Ask: # lookup: composite z-score of CC(C)OC(=O)CC(=O)CC(O)c1cccc(C#N)c1 (centres undefined)
Result: 0.237

Ask: # lookup: composite z-score of O=c1cccc(-c2cccc(Cl)c2)o1
Result: -0.0927

Ask: # lookup: composite z-score of COC(=O)c1c(CC[C@@H](CO)NC(=O)N[C@H](Cn2cc(-c3ccccc3C)nn2)C(C)C)oc(C(C)=O)c1C(=O)OC
Result: -0.29

Ask: # lookup: composite z-score of CN1C(=O)C2C=CC(C(O)Cc3ccccc3)N(N(c3ccccc3)c3ccccc3)C2C1=O (centres undefined)
Result: 0.107

Ask: # lookup: composite z-score of C=CC[C@]12N=C(c3ccc(OCCCO)cc3)O[C@H]1c1ccccc1N(C)C2=O
Result: 0.28

Ask: # lookup: composite z-score of C=C(C(=O)CC[C@H](OC(C)=O)c1cccc(OCCO)c1)C(C)C
Result: -0.121

Ask: # lookup: composite z-score of C=CCOC(=O)[C@@H]1[C@H]2C(=O)O[C@H](c3ccccc3)[C@H](c3ccccc3)N2[C@H](c2ccc(OCCOC(=O)[C@H]3C[C@H]4C(=O)N[C@@H](CCCCN(C)C)C(=O)N4[C@H]3c3cccc(OCCO)c3)cc2)[C@@]12C(=O)Nc1ccc(I)cc12
Result: -0.0216

Ask: # lookup: composite z-score of O=C1O[C@@H](c2ccccc2)[C@@H](c2ccccc2)N2[C@@H](c3ccccc3OCCO)[C@]3(C(=O)Nc4ccc(C#CCCO)cc43)[C@@H](C(=O)N3CCN(c4ncccn4)CC3)[C@H]12
Result: -0.0708

Ask: # lookup: composite z-score of COCCOC(=O)N1C(=O)[C@@]2(c3cc(C#CC4(O)CCCCCC4)ccc31)[C@H](c1ccccc1OCCO)N1[C@H](c3ccccc3)[C@H](c3ccccc3)OC(=O)[C@H]1[C@@H]2C(N)=O
Result: -0.102

Ask: # lookup: composite z-score of C=C[C@@H](C)[C@H](OC(=O)Nc1ccc(SC)cc1)c1ccc(OCCO)cc1
Result: -0.136
